Reported pIC50 values for the following molecules.
- Test system: NIH3T3
- Test method notes: Cytotoxicity against mouse NIH/3T3 cells by MTT assay
- Format: cell-based
pIC50: −log10 of the molar value.
Measured property: pIC50

>  <Molecule smiles>
C#CCn1c(-c2ccc(C(=O)N/N=C/c3ccc(F)cc3)cc2)nc2ccccc21

>  <Relation symbol>
≤

>  <Measured result>
3.00

$$$$
>  <Molecule smiles>
C#CCn1c(-c2ccc(C(=O)N/N=C/c3cccnc3)cc2)nc2ccccc21

>  <Relation symbol>
=

>  <Measured result>
3.50

$$$$

----------
Reported pIC50 values for the following compounds.
- Experimental system: Amine oxidase [flavin-containing] B (Homo sapiens)
- Sequence (P27338 whole entry): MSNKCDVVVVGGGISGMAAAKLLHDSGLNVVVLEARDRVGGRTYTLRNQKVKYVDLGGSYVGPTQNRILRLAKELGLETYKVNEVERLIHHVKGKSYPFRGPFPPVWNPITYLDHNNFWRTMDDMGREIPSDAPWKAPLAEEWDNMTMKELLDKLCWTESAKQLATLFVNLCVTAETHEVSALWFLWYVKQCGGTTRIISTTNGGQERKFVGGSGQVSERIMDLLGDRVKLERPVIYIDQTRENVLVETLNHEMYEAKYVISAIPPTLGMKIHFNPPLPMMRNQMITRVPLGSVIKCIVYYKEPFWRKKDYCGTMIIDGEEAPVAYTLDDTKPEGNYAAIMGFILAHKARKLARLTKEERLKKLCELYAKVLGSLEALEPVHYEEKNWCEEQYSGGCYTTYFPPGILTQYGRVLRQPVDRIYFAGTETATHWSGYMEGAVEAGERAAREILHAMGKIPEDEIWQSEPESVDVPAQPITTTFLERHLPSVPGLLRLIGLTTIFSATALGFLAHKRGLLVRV
- Test method notes: Inhibition of recombinant human MAO-B expressed in baculovirus infected BTI insect cells using tyramine as substrate pretreated for 30 mins followed by substrate addition incubated for 30 mins measured at 5 mins interval by horse-radish peroxidase/amplex red-based fluorometric method
pIC50: −log10 of the molar value.

>  <Molecule smiles>
C#CCn1c(-c2ccc(C(=O)N/N=C/c3ccc(OC)cc3)cc2)nc2ccccc21

>  <Experimental system>
Amine oxidase [flavin-containing] B (Homo sapiens)

>  <Relation symbol>
=

>  <pIC50>
5.71

$$$$
>  <Molecule smiles>
C#CCn1c(-c2ccc(C(=O)N/N=C/c3ccc(O)cc3)cc2)nc2ccccc21

>  <Experimental system>
Amine oxidase [flavin-containing] B (Homo sapiens)

>  <Relation symbol>
=

>  <pIC50>
5.71

$$$$
>  <Molecule smiles>
C#CCn1c(-c2ccc(C(=O)N/N=C/c3cc(OC)cc(OC)c3)cc2)nc2ccccc21

>  <Experimental system>
Amine oxidase [flavin-containing] B (Homo sapiens)

>  <Relation symbol>
=

>  <pIC50>
4.60

$$$$
>  <Molecule smiles>
C#CCn1c(-c2ccc(C(=O)N/N=C/c3cccnc3)cc2)nc2ccccc21

>  <Experimental system>
Amine oxidase [flavin-containing] B (Homo sapiens)

>  <Relation symbol>
=

>  <pIC50>
7.12

$$$$
>  <Molecule smiles>
C#CCn1c(-c2ccc(C(=O)N/N=C/c3cccc(O)c3)cc2)nc2ccccc21

>  <Experimental system>
Amine oxidase [flavin-containing] B (Homo sapiens)

>  <Relation symbol>
≤

>  <pIC50>
3.00

$$$$
>  <Molecule smiles>
C#CCn1c(-c2ccc(C(=O)N/N=C/c3cccn3C)cc2)nc2ccccc21

>  <Experimental system>
Amine oxidase [flavin-containing] B (Homo sapiens)

>  <Relation symbol>
=

>  <pIC50>
4.91

$$$$
>  <Molecule smiles>
C#CCn1c(-c2ccc(C(=O)N/N=C/c3cc(O)cc(O)c3)cc2)nc2ccccc21

>  <Experimental system>
Amine oxidase [flavin-containing] B (Homo sapiens)

>  <Relation symbol>
=

>  <pIC50>
4.99

$$$$
>  <Molecule smiles>
C#CCn1c(-c2ccc(C(=O)N/N=C/c3ccccc3OC)cc2)nc2ccccc21

>  <Experimental system>
Amine oxidase [flavin-containing] B (Homo sapiens)

>  <Relation symbol>
≤

>  <pIC50>
3.00

$$$$
>  <Molecule smiles>
C#CCn1c(-c2ccc(C(=O)N/N=C/c3cccs3)cc2)nc2ccccc21

>  <Experimental system>
Amine oxidase [flavin-containing] B (Homo sapiens)

>  <Relation symbol>
≤

>  <pIC50>
4.00

$$$$
>  <Molecule smiles>
C#CCn1c(-c2ccc(C(=O)N/N=C/c3cccc(OC)c3OC)cc2)nc2ccccc21

>  <Experimental system>
Amine oxidase [flavin-containing] B (Homo sapiens)

>  <Relation symbol>
=

>  <pIC50>
4.73

$$$$
